- System: Jurkat
- experimentalDetails: mean cell size (FSC-A) relative to DMSO control (fraction of control); higher = larger cells
- cond: 48 h
experimentalReadout: mean cell size
// no unit string in output, number only

compound: CC(=O)/N=c1/sc(S(N)(=O)=O)nn1C [Methazolamide] (concentration: 25 µM)
measuredNumber: 1.02

# context switch: different compound, same mean cell size
stdin: Please report mean cell size for the following compound: CCCCCCCCCC(=O)N[C@@H](Cc1c[nH]c2ccccc12)C(=O)N[C@H](CC(N)=O)C(=O)N[C@@H](CC(=O)O)C(=O)N[C@@H]1C(=O)NCC(=O)N[C@@H](CCCN)C(=O)N[C@@H](CC(=O)O)C(=O)N[C@H](C)C(=O)N[C@@H](CC(=O)O)C(=O)NCC(=O)N[C@H](CO)C(=O)N[C@@H]([C@H](C)CC(=O)O)C(=O)N[C@@H](CC(=O)c2ccccc2N)C(=O)O[C@@H]1C [Daptomycin] (concentration: 25 µM)
stdout: 0.975

====

- System: Jurkat
- experimentalDetails: mean cell size (FSC-A) relative to DMSO control (fraction of control); higher = larger cells
- cond: 48 h
Counter-ions that a name gives are not always drawn.
Label class 0 if mean cell size falls below 1; label class 1 in every other case.

Study these solved cases before continuing.
compound: CN(N=O)C(=O)N[C@@H]1[C@@H](O)[C@H](O)[C@@H](CO)O[C@@H]1O [Streptozocin] (concentration: 25 µM)
systemUnderTest: Jurkat
classification: class 0
--
compound: CCCCC[C@H](O)/C=C/[C@H]1[C@H](O)CC(=O)[C@@H]1CCCCCCC(=O)O [Alprostadil] (concentration: 25 µM)
systemUnderTest: Jurkat
classification: class 0
--
compound: CC(=O)NCCCS(=O)(=O)O [Acamprosate] (concentration: 25 µM)
systemUnderTest: Jurkat
classification: class 1
--
compound: CC(C)(C)C(=O)OCOP(=O)(COCCn1cnc2c(N)ncnc21)OCOC(=O)C(C)(C)C [Adefovir Dipivoxil] (concentration: 25 µM)
systemUnderTest: Jurkat
classification: class 1
--
compound: CN(C)c1nc(N(C)C)nc(N(C)C)n1 [Altretamine] (concentration: 25 µM)
systemUnderTest: Jurkat
classification: class 0
--
compound: CC(C[N+](C)(C)C)OC(N)=O (centres undefined) [Bethanechol Chloride] (concentration: 25 µM)
systemUnderTest: Jurkat
classification: class 0

stdin: Would you say CC(C)(C)NC[C@H](O)COc1nsnc1N1CCOCC1 [(S)-Timolol Maleate] (concentration: 25 µM) shows mean cell size at minimum 1?
stdout: class 0

stdin: Would you say CCc1nc(N)nc(N)c1-c1ccc(Cl)cc1 [Pyrimethamine] (concentration: 25 µM) shows mean cell size at minimum 1?
stdout: class 0

====

- System: Jurkat
- experimentalDetails: cell count relative to DMSO control (fraction of control); higher = more cells (less growth inhibition)
- cond: 48 h
Where a name gives a salt, the structure may show the parent alone.
experimentalReadout: cell count
// no unit string in output, number only

stdin: Please report cell count for the following compound: CC(=O)N1CCN(c2ccc(OCC3COC(Cn4ccnc4)(c4ccc(Cl)cc4Cl)O3)cc2)CC1 (stereo unspecified) [Ketoconazole] (concentration: 25 µM)
stdout: 0.564

stdin: Please report cell count for the following compound: CN(C)CCc1c[nH]c2ccc(C[C@H]3COC(=O)N3)cc12 [Zolmitriptan] (concentration: 25 µM)
stdout: 0.419

stdin: Please report cell count for the following compound: OC(c1cc(C(F)(F)F)nc2c(C(F)(F)F)cccc12)C1CCCCN1 (stereo unspecified) [Mefloquine·HCl] (concentration: 2.5 µM)
stdout: 0.813

stdin: Please report cell count for the following compound: Cc1ccc(NC(=O)c2ccc(CN3CCN(C)CC3)cc2)cc1Nc1nccc(-c2cccnc2)n1 [Imatinib Mesylate] (concentration: 25 µM)
stdout: 0.589

stdin: Please report cell count for the following compound: C[C@@H]1C[C@H]2[C@@H]3CCC4=CC(=O)C=C[C@]4(C)[C@@]3(F)[C@@H](O)C[C@]2(C)[C@H]1C(=O)CO [Desoximetasone] (concentration: 25 µM)
stdout: 0.764

stdin: Please report cell count for the following compound: CC1(C)O[C@@H]2C[C@H]3[C@@H]4CCC5=CC(=O)C=C[C@]5(C)[C@H]4[C@@H](O)C[C@]3(C)[C@]2(C(=O)CO)O1 [Desonide] (concentration: 25 µM)
stdout: 0.857
